# credit: patent US20080051336A1

- targetOrTestSystem: T1, human GPCR135 (human, UniProt Q9NSD7 1-469)
- T1 sequence: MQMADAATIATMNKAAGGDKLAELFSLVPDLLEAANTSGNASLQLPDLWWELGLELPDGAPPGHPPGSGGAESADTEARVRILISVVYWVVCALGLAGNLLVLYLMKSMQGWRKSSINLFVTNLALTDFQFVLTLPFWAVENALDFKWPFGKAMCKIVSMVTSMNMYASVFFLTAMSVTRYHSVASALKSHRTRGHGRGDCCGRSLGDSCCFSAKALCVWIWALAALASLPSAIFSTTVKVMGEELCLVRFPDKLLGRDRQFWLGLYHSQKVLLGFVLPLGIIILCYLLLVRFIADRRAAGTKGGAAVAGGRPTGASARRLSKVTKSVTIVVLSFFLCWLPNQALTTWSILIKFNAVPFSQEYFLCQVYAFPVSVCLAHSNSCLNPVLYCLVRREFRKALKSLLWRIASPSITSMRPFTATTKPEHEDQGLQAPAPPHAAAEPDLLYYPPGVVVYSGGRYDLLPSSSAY
- procedureText: cell-based or functional assay
Ends that are not written are not given here.
Field: EC50, inhibition of forskolin stimulated β-galactosidase expression. Provide a value for each of the binders that follow.
Give bare numbers, in nM.

Reference set (2 entries):
>  <binder>
RAAPYGVRLCGREFIRAVIFTCGGSRWGYSEKCCLTGCTKEELSIAC (ligand, disulfide (positions not given here); also: two chains (relaxin-3 B-chain, INSL6 A-chain), disulfide-linked, chain break not marked, Mature two-chain peptide: human relaxin-3 B-chain disulfide-linked to human INSL6 A-chain; FLAG tag removed) [human relaxin-3/INSL6 chimeric polypeptide (R3/I6), mature]

>  <readoutUnits>
nM

>  <valueMeasured>
8.4

$$$$
>  <binder>
human relaxin-3/relaxin-2 chimeric polypeptide (R3/R2), mature (ligand, disulfide (positions not given here); also: two-chain peptide (relaxin-3 B chain, relaxin-2 A chain), disulfide-linked, places not given here, Mature two-chain peptide: human relaxin-3 B-chain disulfide-linked to human relaxin-2 A-chain; FLAG tag removed) RAAPYGVRLCGREFIRAVIFTCGGSRWQLYSALANKCCHVGCTKRSLARFC

>  <readoutUnits>
nM

>  <valueMeasured>
1.1

$$$$

Turning now to a further binder:
[ask] Consider the binder RAAPYGVRLCGREFIRAVIFTCGGSRWPYVALFEKCCLIGCTKRSLAKYC (ligand, disulfide (positions not given here); also: two chains (relaxin-3 B-chain, relaxin-1 A-chain), disulfide-linked, chain break not marked, Mature two-chain peptide: human relaxin-3 B-chain disulfide-linked to human relaxin-1 A-chain; Made in COS-7 cells with furin; the FLAG tag was removed with enterokinase) [human relaxin-3/relaxin-1 chimeric polypeptide (R3/R1), mature] and give its measured EC50, inhibition of forskolin stimulated β-galactosidase expression.
[reply] 1.8
